test system: Wolbachia pipientis; assay: Anti-Wolbachia Cell-Based Screen; assay type: functional; design: scale not given: in the data most compounds retested in dose-response had high values; details: 5 µM
Hit rate of the full screen: of about 48,000 compounds, about 13,000 (27%) showed an effect of 50% or more. Some of the results follow.
parameterMeasured: Percent Effect (%)

compound: NS(=O)(=O)CCN1CCN(c2cc(F)ccc2F)CC1
parameterMeasured: Percent Effect
experimentalResult: -4.797
--
compound: Cc1[nH]c(=O)[nH]c(=O)c1CN1CCCC(CCc2ccc(F)cc2F)C1 (stereo unspecified)
parameterMeasured: Percent Effect
experimentalResult: 2.06
--
compound: COc1ccc(C2CC(=O)Nc3c2nc2n3CCCC2)cc1O (stereo unspecified)
parameterMeasured: Percent Effect
experimentalResult: 0.05289
--
compound: Cc1ccc(CNC(=O)c2nc3c(n2C)CCN(c2ncccn2)C3)o1
parameterMeasured: Percent Effect
experimentalResult: 77.66
--
compound: CSCCC(=O)NS(=O)(=O)c1ccc2c(c1)OCCO2
parameterMeasured: Percent Effect
experimentalResult: 2.619
--
compound: CCOc1ccc(-c2ccnc(C)n2)cc1C(=O)O
parameterMeasured: Percent Effect
experimentalResult: -6.535
--
compound: Cc1n[nH]c(C(=O)N2CCCC(C)CC2)c1Br (stereo unspecified)
parameterMeasured: Percent Effect
experimentalResult: 10.78
--
compound: COc1ccc(C2CC(=O)Nc3c2nc2n3CCCC2)cc1OC (stereo unspecified)
parameterMeasured: Percent Effect
experimentalResult: 9.396
--
compound: CNC(=O)C(C)(C)N1CCC[C@H]1C(=O)NCCN1CCCC1.Cl.Cl
parameterMeasured: Percent Effect
experimentalResult: 7.406
--
compound: CCN1C(=O)CCC12CCN(S(=O)(=O)c1ccc(C#N)cc1)CC2
parameterMeasured: Percent Effect
experimentalResult: 5.403
--
compound: NS(=O)(=O)c1cnc(NCC2(c3cccc(F)c3)CCOCC2)s1
parameterMeasured: Percent Effect
experimentalResult: -14.69

====

tested on: Wolbachia pipientis; experiment: Anti-Wolbachia Cell-Based Screen; type: functional; design: scale not given: in the data most compounds retested in dose-response had high values; conditions: 5 µM
Screen size: about 48,000 compounds; about 13,000 (27%) showed an effect of 50% or more. This is one part of the list.
parameterMeasured: Percent Effect (%)

molecule: CC(C)n1ccnc1CN1CCCN(C(=O)COC2CCCC2)CC1
scaleUnit: %
experimentalResult: -4.301
--
molecule: COc1ccc(-c2n[nH]c(C)c2CC(=O)NCCN2CCOCC2)cc1
scaleUnit: %
experimentalResult: 95.82
--
molecule: Cc1cc(=O)n(CC(=O)NCC2CCCO2)c(-c2ccc(F)cc2)n1 (stereo unspecified)
scaleUnit: %
experimentalResult: 12.17
--
molecule: Cc1ccc(-n2nnc(CC(=O)N3CCOCC3)c2C)cc1
scaleUnit: %
experimentalResult: -5.261
--
molecule: COc1ccc(CC(=O)Nc2c(C)nc(N3CCOCC3)nc2C)cc1
scaleUnit: %
experimentalResult: 11.03
--
molecule: CC(C)n1cc(CN2CCCN(C(=O)CC3CCCO3)CC2)cn1 (stereo unspecified)
scaleUnit: %
experimentalResult: 115.9
--
molecule: Cc1ccc(-c2nc(CC(=O)NCC3CCOC3)cs2)o1 (stereo unspecified)
scaleUnit: %
experimentalResult: 7.713
--
molecule: Cc1ccc(-c2cc(C(=O)NCCN3CCOCC3)n[nH]2)s1
scaleUnit: %
experimentalResult: 2.618
--
molecule: CS(=O)(=O)Cc1cccc(CNS(=O)(=O)c2ccc(F)c(F)c2)c1
scaleUnit: %
experimentalResult: -9.477
--
molecule: N#Cc1cccc(S(=O)(=O)NC2CCN(Cc3ccccc3)C2=O)c1 (stereo unspecified)
scaleUnit: %
experimentalResult: -3.444
--
molecule: COc1ccc(-c2n[nH]c(C)c2CC(=O)NCC2CCOCC2)cc1
scaleUnit: %
experimentalResult: 94.98

====

system: Wolbachia pipientis; assay: Anti-Wolbachia Cell-Based Screen; type: functional; set-up: scale not given: in the data most compounds retested in dose-response had high values; details: 5 µM
The campaign covered roughly 48,000 compounds. About 13,000 (27%) showed an effect of 50% or more. Some of the results follow.
// reported Percent Effect for each item listed

compound: CCOC(=O)c1cnn(-c2cc(C)ccn2)c1N
scaleUnit: %
Percent Effect: -12.86
--
compound: COCCN1CCCC2(CCN(c3nc(C)nc4ccsc34)C2)C1=O (configuration not stated)
scaleUnit: %
Percent Effect: -7.564
--
compound: Cc1ccc(-c2cnn(CC(=O)NC(C)C)c2)cc1
scaleUnit: %
Percent Effect: 96.48
--
compound: CC(C)NC(=O)Cn1cc(-c2ccccc2)cn1
scaleUnit: %
Percent Effect: 1.398
--
compound: COCC(=O)N1CCOC(c2cccc(-c3cncnc3)n2)C1 (configuration not stated)
scaleUnit: %
Percent Effect: 151.1
--
compound: CC(C)C(C)(C#N)NC(=O)Cn1cc(-c2ccccc2)cn1 (configuration not stated)
scaleUnit: %
Percent Effect: -4.052
--
compound: CN(C)CCO[C@H]1CN(Cc2ccco2)[C@@H]2COC[C@H]12.O=C(O)C(F)(F)F.O=C(O)C(F)(F)F
scaleUnit: %
Percent Effect: 94.89
--
compound: Cc1ccc(C)c(-n2ncc(C(=O)N(C)CCc3ccccn3)c2N)c1
scaleUnit: %
Percent Effect: 159.7
--
compound: Cc1nn(C)c(C)c1CN(C)C(=O)c1cccc(CCC(C)(C)O)c1
scaleUnit: %
Percent Effect: -10.94
--
compound: CN(C)CC1CN(c2ccc(C#N)cn2)CCO1 (configuration not stated)
scaleUnit: %
Percent Effect: -4.596
--
compound: Cc1cnn(CC2CN(c3ccc(C#N)cn3)CCO2)c1 (configuration not stated)
scaleUnit: %
Percent Effect: 117.6
--
compound: O=C(NCCN1CCOCC1)NCc1ccc(-n2cccn2)cc1
scaleUnit: %
Percent Effect: -7.54
--
compound: Cc1cc(C(=O)N2C[C@@H]3[C@@H](CN(C)CCc4ccccn4)[C@@H]3C2)c(C)o1
scaleUnit: %
Percent Effect: -1.529
--
compound: Cc1cc(C)n(CC2CN(CCOc3cccc(C#N)c3)CCO2)n1 (configuration not stated)
scaleUnit: %
Percent Effect: -7.515
--
compound: CN(C)CCO[C@H]1CN(Cc2cccc(C#N)c2)[C@@H]2COC[C@H]12.O=C(O)C(F)(F)F.O=C(O)C(F)(F)F
scaleUnit: %
Percent Effect: -16.47
--
compound: Cc1cc(Cl)ccc1-n1ncc(C(=O)N(C)CCc2ccccn2)c1N
scaleUnit: %
Percent Effect: 185.4
--
compound: CN(CCc1ccccn1)C(=O)C(c1cccnc1)N1CCOCC1 (configuration not stated)
scaleUnit: %
Percent Effect: 2.073
--
compound: Cc1ccc(CN2C[C@H](OCCN(C)C)[C@H]3OCCC[C@H]32)o1.O=C(O)C(F)(F)F.O=C(O)C(F)(F)F
scaleUnit: %
Percent Effect: 11.84
--
compound: N#Cc1nccnc1N1CCC(CSc2ccccc2)C1 (configuration not stated)
scaleUnit: %
Percent Effect: -2.144
--
compound: Cc1cc(C)n(CC2CN(c3ccc(C#N)cn3)CCO2)n1 (configuration not stated)
scaleUnit: %
Percent Effect: 119.8
--
compound: CC(C)Oc1ccc(C(=O)N2CCC(Nc3cccnn3)CC2)cn1
scaleUnit: %
Percent Effect: 123.7
--
compound: COc1ccc(C(=O)N2CCC(Nc3cccnn3)CC2)cn1
scaleUnit: %
Percent Effect: 104

====

The following compounds are shown together with reported Percent Effect values.
system: Wolbachia pipientis; test: Anti-Wolbachia Cell-Based Screen; assay type: functional; set-up: scale not given: in the data most compounds retested in dose-response had high values; conditions: 5 µM
Screen size: about 48,000 compounds; about 13,000 (27%) showed an effect of 50% or more. This is one part of the list.
parameterMeasured: Percent Effect (%)

compound: N#Cc1ccc(N2CCC(c3nccn3Cc3cscn3)CC2)nc1
testedSystem: Wolbachia pipientis
scaleUnit: %
experimentalResult: 4.95

compound: CCC(CO)N(Cc1cccnc1)Cc1ccc(-c2ccn[nH]2)s1 (configuration not stated)
testedSystem: Wolbachia pipientis
scaleUnit: %
experimentalResult: 4.35

compound: CCN1CCC2(CCC1=O)CN(c1cnc3ccccc3n1)CCN2C (configuration not stated)
testedSystem: Wolbachia pipientis
scaleUnit: %
experimentalResult: 10.67

compound: CCC(CO)N(Cc1ccccn1)Cc1ccc(-c2ccn[nH]2)s1 (configuration not stated)
testedSystem: Wolbachia pipientis
scaleUnit: %
experimentalResult: 0.2436

compound: CCN(CC)c1ncccc1CNC(=O)c1cc2nc(C)cc(C)n2n1
testedSystem: Wolbachia pipientis
scaleUnit: %
experimentalResult: -11.51

compound: Cc1nc(CN2CCN(C(=O)CCC(=O)c3ccccc3)CC2)no1
testedSystem: Wolbachia pipientis
scaleUnit: %
experimentalResult: 17.55

compound: Cn1ccnc1C1CCN(S(=O)(=O)c2ccc3c(c2)OCCO3)CC1
testedSystem: Wolbachia pipientis
scaleUnit: %
experimentalResult: -44.72

compound: Cn1cc(S(=O)(=O)NCCc2nnc3ccccn23)cn1
testedSystem: Wolbachia pipientis
scaleUnit: %
experimentalResult: -3.582

compound: COc1ccc(F)cc1C(C)NC(=O)Nc1nncs1 (configuration not stated)
testedSystem: Wolbachia pipientis
scaleUnit: %
experimentalResult: 5.791

compound: CC(NC(=O)CCc1cccc(OC2CCCC2)c1)c1nncn1C (configuration not stated)
testedSystem: Wolbachia pipientis
scaleUnit: %
experimentalResult: -2.207

compound: O=C1NCCCCC1NS(=O)(=O)N1CCCCC1 (configuration not stated)
testedSystem: Wolbachia pipientis
scaleUnit: %
experimentalResult: 30.79

compound: Cc1noc2ncc(S(=O)(=O)Nc3cc(C(C)(C)C)n[nH]3)cc12
testedSystem: Wolbachia pipientis
scaleUnit: %
experimentalResult: -0.8197
